# Tested on: Wild type
# TEST: S. aureus survival, RN4220 and DeltatarO strains – OD600, teichoic acid synthesis inhibitors, primary screen (AID 463173)
# CONDITION INFO: S. aureus RN4220 wild type/DeltatarO growth, OD600, 18 h, stronger effect = lower value, screened at 18.75 µg/mL (by protocol)
The whole screen tested about 52,000 compounds, of which about 1,700 (3.3%) were called active. For the sample, actives were picked, then their nearest neighbours and some compounds at random.
Mark y for survival under 80%, n if at or over.

Field: example entries. Status: answers known.
# MOLECULE, CLASS
records = [
    ("Cc1ccc(OCC(=O)Nc2c(C(=O)c3ccc(Cl)cc3)oc3ccccc23)cc1C", "n"),
    ("COCCCNC(=O)C1CCN(c2nnc(-n3cccc3CNc3ccc(C)cc3)s2)CC1", "y"),
    ("COCCn1c(CNC(=O)c2ccccc2C)nc2cccnc21", "y"),
    ("CCOc1ccc(C(C)N)cc1 (stereo unspecified)", "n"),
]

We next turn to a different molecule, shown below.
Strictly below 80%: is that where survival of CCN(CC)c1ncnc2c1cnn2-c1cc(Cl)ccc1C sits?
y

###

# Test system: Wild type
# TEST: S. aureus survival, RN4220 and DeltatarO strains – OD600, teichoic acid synthesis inhibitors, primary screen (AID 463173)
# CONDITION INFO: S. aureus RN4220 wild type/DeltatarO growth, OD600, 18 h, screened at 18.75 µg/mL (by protocol)
Out of some 52,000 compounds screened, about 1,700 (3.3%) were called active. Rule as the data show it: active = survival mostly below about 52% (no sharp cut-off); inactive = mostly above about 56%. This is one part of a sample in which actives are shown more often than they occur.
Assign a class; possible classes are yes for active, no for inactive

# SMILES NOTATION, TARGET SYSTEM, CLASS
measured = [
    ("Cn1cnnc1SCC(=O)Nc1ccc(C#N)cc1", "Wild type", "no"),
    ("COc1cc(CNCCSc2nnnn2C)ccc1OCc1c(F)cccc1Cl", "Wild type", "no"),
    ("O=[N+]([O-])c1cc(-c2nc(-c3ccccn3)no2)ccc1NCc1ccccc1", "Wild type", "no"),
]

Assay result, entry CCc1ccc(NC(=O)Cn2c(=O)n(CCCC(=O)NCc3ccccc3Cl)c(=O)c3ccccc32)cc1 — outcome?
no

Name the outcome recorded for COc1ccc(NC(=O)c2oc3ccccc3c2NC(=O)Cc2coc3ccc(C)cc23)cc1 in the assay.
no

For this compound, state the assay outcome: Cc1cccc(C(=O)Nc2ccc(N3CC=C(c4ccccc4C)CC3)c(C(=O)O)c2)c1
no

###

# Test system: Wild type
# TEST: S. aureus survival, RN4220 and DeltatarO strains – OD600, teichoic acid synthesis inhibitors, primary screen (AID 463173)
# CONDITION INFO: S. aureus RN4220 wild type/DeltatarO growth, OD600, 18 h, stronger effect = lower value, screened at 18.75 µg/mL (by protocol)
The campaign covered roughly 52,000 compounds. About 1,700 (3.3%) were called active. The entries come from a sample that favours actives as a whole.
READOUT KIND: survival

# return survival for each item in the list
1. CCOC(=O)C1NC(=O)CC1c1ccccc1 (configuration not stated)
2. O=C(CCC(=O)N1Cc2ccccc2Oc2ncccc21)Nc1ccc(Cl)cc1

99% (inactive)
10% (active)

Hi! Can you tell me survival for each of these compounds?
1. CC(C)NC(=O)CCC(=O)N1Cc2ccccc2Oc2ncccc21
2. CCOc1ccc(C(=O)Nc2cccc(C(=O)OCc3cc(=O)n4cc(C)sc4n3)c2)cc1
3. CCOC(=O)c1ccc(NC(=O)CSc2nc(C)c(Cc3ccccc3)c(=O)[nH]2)cc1
4. COc1ccccc1NC(=O)Cn1nc2c3cc(F)ccc3n(Cc3cccc(C)c3)cc-2c1=O
5. Cc1ccc2nc(NC(=O)CSc3nccn3Cc3ccc(Cl)cc3)sc2c1
6. COc1ccc(-c2cc(C(F)(F)F)nc(SCC(=O)N3CCCCC3C)n2)cc1OC (configuration not stated)
7. Cc1ccc2nc(NC(=O)CSc3nccn3Cc3ccccc3)sc2c1

1. -2% (active)
2. 81% (inactive)
3. 80% (inactive)
4. -4% (active)
5. 72% (inactive)
6. 69% (inactive)
7. 10% (active)

// each listed compound needs a value for survival
1. Cc1ccc2nc(NC(=O)CSc3nccn3Cc3ccc(F)cc3)sc2c1
2. CCc1ccccc1NC(=O)Cn1nc2c3cc(F)ccc3n(Cc3cccc(C)c3)cc-2c1=O

1. 80% (inactive)
2. 71% (inactive)

Quick request: survival for each listed item, please.
1. O=C(CSCc1ccccc1Cl)N/N=C/c1ccc(O)cc1O
2. O=C(CSc1nccn1Cc1ccc(F)cc1)Nc1nc2ccccc2s1
3. Cc1ccc(Cn2ccnc2SCC(=O)Nc2nnc(C)s2)cc1
4. COc1ccc(OC)c(NC(=O)Cc2c(C(=O)O)n(C)c3ccc(C)cc23)c1

1. 122% (inactive)
2. 82% (inactive)
3. 65% (inactive)
4. 88% (inactive)

List survival for every entry below, keeping the order given.
1. CCN(C(=O)C(=O)Nc1ccc2nc3n(c(=O)c2c1)CCCCC3)c1ccc(F)cc1
2. CC(C)CCNC(=O)CCC(=O)N1Cc2ccccc2Oc2ncccc21

94% (inactive)
65% (inactive)

I have 5 compounds here; please give me survival for each one.
1. CCOc1ccccc1NC(=O)Cn1nc2c3cc(F)ccc3n(Cc3cccc(C)c3)cc-2c1=O
2. Cc1c(C(=O)NCc2ccc(F)cc2)oc2ccc(S(=O)(=O)N3CCCCC3)cc12
3. COc1ccc(-c2cc(C(F)(F)F)nc(SCC(=O)N3CCCCC3)n2)cc1OC
4. O=C(CCc1cn(Cc2ccccc2F)c2ccccc12)NCc1ccc(Cl)cc1
5. C/C=C/C(=O)Nc1ccc(Cl)c(Cl)c1

1: 81% (inactive); 2: 84% (inactive); 3: 90% (inactive); 4: 81% (inactive); 5: 108% (inactive)

All values here come from PubChem BioAssay AID463173.
